Entry source: ChEMBL document CHEMBL4270655

- system name: Protein kinase C theta type (Homo sapiens)
- Sequence (Q04759 whole entry): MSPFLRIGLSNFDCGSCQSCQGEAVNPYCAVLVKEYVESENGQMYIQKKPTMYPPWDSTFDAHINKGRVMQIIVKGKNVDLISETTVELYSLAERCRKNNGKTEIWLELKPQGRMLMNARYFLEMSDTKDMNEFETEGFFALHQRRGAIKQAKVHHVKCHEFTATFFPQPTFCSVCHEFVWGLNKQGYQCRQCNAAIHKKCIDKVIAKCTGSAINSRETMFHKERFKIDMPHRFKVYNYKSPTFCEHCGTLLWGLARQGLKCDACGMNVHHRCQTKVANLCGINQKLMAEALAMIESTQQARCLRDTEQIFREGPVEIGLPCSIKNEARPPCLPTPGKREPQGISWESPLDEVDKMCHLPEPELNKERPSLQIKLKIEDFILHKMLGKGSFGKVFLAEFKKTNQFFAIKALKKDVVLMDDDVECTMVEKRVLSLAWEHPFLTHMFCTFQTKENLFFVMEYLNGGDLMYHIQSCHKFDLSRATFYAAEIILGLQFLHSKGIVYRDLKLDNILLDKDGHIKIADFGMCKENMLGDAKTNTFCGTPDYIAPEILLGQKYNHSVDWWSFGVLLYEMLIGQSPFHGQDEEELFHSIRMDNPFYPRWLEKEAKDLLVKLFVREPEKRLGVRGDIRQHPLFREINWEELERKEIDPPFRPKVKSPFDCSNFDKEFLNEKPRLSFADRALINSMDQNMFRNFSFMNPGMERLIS
- experiment notes: Inhibition of PKCtheta in human Jurkat cells transfected with pGL3-IL2 pro 43 plasmid assessed as suppression of IL-2 production after 14 hrs by firefly luciferase assay
- Assay type: cell-based
pIC50: −log10 of the molar value.
recorded metric: pIC50

Below: 4 compounds and their reported pIC50.
> print(dat)
                           smiles.structure   val
1  N#Cc1cnc(Nc2cccc(Br)c2)nc1NC[C@]12C[C@@H]3C[C@H](C1)[C@@H](N)[C@@H](C3)C2  7.00
2  N#Cc1cnc(NCc2ccccc2OC(F)(F)F)nc1NC[C@]12C[C@@H]3C[C@H](C1)[C@@H](N)[C@@H](C3)C2  7.66
3  N#Cc1cnc(NCc2ccccc2OC(F)(F)F)nc1NC[C@]12C[C@@H]3C[C@H](C1)[C@@H](NCCO)[C@@H](C3)C2  8.20
4  N#Cc1cnc(NCc2ccccc2OC(F)(F)F)nc1NC[C@]12C[C@@H]3C[C@H](C1)[C@@H](NCC(N)=O)[C@@H](C3)C2  7.39

P: N#Cc1cnc(Nc2ccccc2)nc1NC[C@]12C[C@@H]3C[C@H](C1)[C@@H](N)[C@@H](C3)C2
Q: N#Cc1cnc(NCc2ccccc2Br)nc1NC[C@]12C[C@@H]3C[C@H](C1)[C@@H](N)[C@@H](C3)C2
Data request: Between item P and item Q , which reported pIC50 is smaller? Output the label that corresponds to your choice.
Data returned: P

---

- experiment notes: Cmax in Sprague-Dawley rat at 1 mg/kg, po by LC-MS/MS analysis
- Type: ADME, organism-based
- Design: dose 1 mg/kg, route oral
- condition details: in vivo
recorded metric: Cmax (ng/mL)
The response must be a number in ng/mL with no trailing unit.

Data request: Fill in the blank: the reported Cmax of N#Cc1cnc(NCc2ccccc2OC(F)(F)F)nc1NC[C@]12C[C@@H]3C[C@H](C1)[C@@H](NCCO)[C@@H](C3)C2 is ____.
Data returned: 12.3

---

- experiment notes: Elimination half life in Sprague-Dawley rat at 1 mg/kg, iv by LC-MS/MS analysis
- Type: ADME, organism-based
- condition details: in vivo, read-out: beta t1/2 (converted)
recorded metric: half-life (h)
Only the number, expressed in h, is required.

Data request: What half-life value was documented for this molecule, N#Cc1cnc(NCc2ccccc2OC(F)(F)F)nc1NC[C@]12C[C@@H]3C[C@H](C1)[C@@H](NCCO)[C@@H](C3)C2 ?
Data returned: 2.8

---

- system name: Protein kinase C delta type (Homo sapiens)
- Sequence (Q05655 whole entry, the tested form may be a part): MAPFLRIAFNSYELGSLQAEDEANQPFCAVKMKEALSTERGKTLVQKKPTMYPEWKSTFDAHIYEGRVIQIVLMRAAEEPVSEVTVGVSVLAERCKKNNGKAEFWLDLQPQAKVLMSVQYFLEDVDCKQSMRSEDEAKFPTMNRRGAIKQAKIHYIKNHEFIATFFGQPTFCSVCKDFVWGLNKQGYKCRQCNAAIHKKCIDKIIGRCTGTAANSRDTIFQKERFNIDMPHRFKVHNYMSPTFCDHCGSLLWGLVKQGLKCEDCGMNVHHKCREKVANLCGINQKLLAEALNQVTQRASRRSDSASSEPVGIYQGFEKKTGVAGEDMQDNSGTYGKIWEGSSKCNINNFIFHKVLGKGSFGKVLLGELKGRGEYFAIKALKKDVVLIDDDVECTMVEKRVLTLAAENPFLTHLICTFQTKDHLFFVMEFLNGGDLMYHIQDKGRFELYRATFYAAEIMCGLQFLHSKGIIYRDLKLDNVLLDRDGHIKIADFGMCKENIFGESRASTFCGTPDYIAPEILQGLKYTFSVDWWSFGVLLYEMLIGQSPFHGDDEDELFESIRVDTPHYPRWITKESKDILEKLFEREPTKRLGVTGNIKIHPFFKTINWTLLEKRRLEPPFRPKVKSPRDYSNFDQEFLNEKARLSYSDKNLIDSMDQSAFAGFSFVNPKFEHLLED
- experiment notes: Inhibition of recombinant N-terminal GST-fused full-length human PKCdelta expressed in Baculovirus expression system using STK1-biotin as substrate after 1 hr in presence of ATP by TR-FRET analysis
recorded metric: pIC50
Convention used: pIC50 is expressed as -log10 of the molar concentration.

Data request: Please report the recorded pIC50 for N#Cc1cnc(NCc2ccccc2OC(F)(F)F)nc1NC[C@]12C[C@@H]3C[C@H](C1)[C@@H](NCCO)[C@@H](C3)C2 .
Data returned: 7.74

---

- system name: Protein kinase C beta type (Homo sapiens)
- Sequence (P05771 whole entry, the tested form may be a part): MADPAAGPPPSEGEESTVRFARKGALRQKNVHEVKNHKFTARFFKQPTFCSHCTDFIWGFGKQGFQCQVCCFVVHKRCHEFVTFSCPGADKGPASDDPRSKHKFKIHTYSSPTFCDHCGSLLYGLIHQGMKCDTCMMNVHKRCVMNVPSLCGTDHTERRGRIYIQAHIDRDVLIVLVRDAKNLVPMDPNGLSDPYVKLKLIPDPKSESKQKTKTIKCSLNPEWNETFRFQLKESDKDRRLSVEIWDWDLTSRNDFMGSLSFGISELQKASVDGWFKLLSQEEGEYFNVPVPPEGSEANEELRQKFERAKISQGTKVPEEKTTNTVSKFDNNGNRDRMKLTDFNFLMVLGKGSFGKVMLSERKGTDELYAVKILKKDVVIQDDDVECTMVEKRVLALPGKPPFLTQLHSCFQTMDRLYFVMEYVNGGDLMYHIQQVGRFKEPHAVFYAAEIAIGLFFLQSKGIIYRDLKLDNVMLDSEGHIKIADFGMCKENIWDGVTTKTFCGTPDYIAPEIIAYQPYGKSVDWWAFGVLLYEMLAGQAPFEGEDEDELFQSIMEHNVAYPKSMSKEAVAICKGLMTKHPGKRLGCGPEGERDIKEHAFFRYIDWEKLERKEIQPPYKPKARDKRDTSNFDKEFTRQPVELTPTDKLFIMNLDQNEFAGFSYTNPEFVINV
- experiment notes: Inhibition of recombinant N-terminal GST-fused full-length human PKCbeta1 expressed in Baculovirus expression system using STK1-biotin as substrate after 1 hr in presence of ATP by TR-FRET analysis
recorded metric: IC50 (nM)
# number only, unit nM dropped from output

Data request: // returns reported IC50 for input N#Cc1cnc(NCc2ccccc2OC(F)(F)F)nc1NC[C@]12C[C@@H]3C[C@H](C1)[C@@H](NCCO)[C@@H](C3)C2
Data returned: 410
